B1: EPB41L3 (parent)
chain: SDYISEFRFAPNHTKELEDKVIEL

- Variants of: B1
- experiment-summary: protein stability index of a GFP-peptide fusion (GPS, HEK-293T) (PSI 1-6); higher = more stable;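 also: lentivirally expressed fusions sorted by FACS into six bins by GFP to DsRed ratio, PSI derived from sequencing read proportions per bin multiplied by bin number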
- test-context: c terminus: a fixed tail appended
Rule: protein stability index of 2 or more gives 1 (yes); anything lower gives 0 (no).

Input: Threshold query (protein stability index >= 2) on SDYISEFRFAPGHTKELEDKVIEL
Output: 0 (no)

Input: Threshold query (protein stability index >= 2) on SDYISEFREAPNHTKELEDKVIEL
Output: 1 (yes)

Data provenance is the supplement of paper PMC10567573.
